The reported numbers originate from ChEMBL document CHEMBL4145532.

assay: Half life in human plasma up to 1 uM by LC-MS/MS analysis; assay type: ADME, cell-free
Reported half-life by item:

COc1ccc(C(CCCN2CCN(Cc3cc(OC)c(OC)c(OC)c3)CC2)c2ccc(OC)cc2)cc1
> 4 h
COc1ccc(C(CCCN2CCN(C/C=C/c3cc(OC)c(OC)c(OC)c3)CC2)c2ccc(OC)cc2)cc1
> 4 h
CCOC(=O)C(C)c1cccc(C(=O)c2ccccc2)c1 (stereo not given)
1.83 h
COc1cc(/C=C/CN2CCN(Cc3c4ccccc4cc4ccccc34)CC2)cc(OC)c1OC
> 4 h

Retrieve half-life measured for COc1ccc(C(CCCN2CCN(CCOc3cc(OC)c(OC)c(OC)c3)CC2)c2ccc(OC)cc2)cc1 and print it.
> 4 h

====

Reported Flu intensity by item:
species: Homo sapiens; experiment: Inhibition of P-gp in human K562/Dox cells assessed as reduction in Rh-123 efflux by measuring mean fluorescence intensity at 1 uM preincubated for 15 mins followed by Rh-123 addition for 30 mins and subsequent replacement in Rh-123 free medium measured after 30 mins by FACS analysis; assay type: cell-based
Form: value (number only, do not type unit).

These recorded examples may help you get a feel for the data.
COc1cc(/C=C/CN2CCN(Cc3c4ccccc4cc4ccccc34)CC2)cc(OC)c1OC
7.5
COc1ccc(C(CCCN2CCN(CCOc3cc(OC)c(OC)c(OC)c3)CC2)c2ccc(OC)cc2)cc1
5.5
COc1ccc(C(CCCN2CCN(Cc3cc(OC)c(OC)c(OC)c3)CC2)c2ccc(OC)cc2)cc1
30

// next entry
Retrieve Flu intensity measured for COc1ccc(C(CCCN2CCN(C/C=C/c3cc(OC)c(OC)c(OC)c3)CC2)c2ccc(OC)cc2)cc1 and print it.
108
